# experiment summary: sensitizers of A549 cells to miR-34 induction, primary screen, imaging, A549 dox-inducible miR-34, nuclei and caspase counts (AID 1347080); note: test concentration not given here
# setup conditions: A549 miR-34 inducible, Hoechst nuclei count, 48 h; stronger effect = lower value; cell number ratio, induced over uninduced
The source made the active and inactive calls.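 Rule for the calls: active = compounds whose cell count with miR-34 switched on is under 0.7 times the count with it off; inactive = the rest.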
recorded endpoint: fold change

Example results:
Reported fold change of C=C1[C@@H](O)[C@@H]2O[C@@]3(CCC2O[C@@H]1[C@@H](O)C[C@H](C)C1O[C@@]2(CCCCO2)CC[C@H]1C)CC[C@H](/C=C/[C@@H](C)[C@@H]1CC(C)=C[C@@]2(O[C@H](C[C@@](C)(O)C(=O)O)CC[C@H]2O)O1)O3 (stereo partly drawn) : 0.897 (inactive)

Reported fold change of NC(CC(=O)N1CCn2c(nnc2C(F)(F)F)C1)Cc1cc(F)c(F)cc1F (stereo not drawn) : 0.922 (inactive)

Read the next record carefully.
Reported fold change of `C1CCN(C2CCNCC2)CC1` : 0.919 (inactive)
